Could you please report measured growth inhibition for the items listed next?
test: NCI Yeast Anticancer Drug Screen. Data for the mec2-1 strain (AID 157)
testParameters: S. cerevisiae mec2-1 strain, at 50.0 µM (retest, dose inferred, filed as 5.0), hits give high values
This is part of a sample that, as a whole, favours compounds with a hit. Of some 79,000 tested, about 15% had one in any assay.
Answers are plain numbers, in %.

* CCCc1cc(-c2ccc(O)c(CCC)c2)ccc1O | 99
* N=C(N)Sc1ccc([N+](=O)[O-])cc1Cl | 96
* O=C1C2=C(CCCC2)C(=O)C(Cl)C1Cl (stereo not drawn) | 99

Kindly give each listed record's growth inhibition.
1. COc1cccc(C2c3cc4c(cc3OC(NNc3ccccc3)C2C)OCO4)c1OC (stereo not drawn)
2. CCCCCCCCCCCCC1N=C(N)N2CCCC2=C1C(=O)OC (stereo not drawn)
3. C=C1C(=O)OC(CCCCCCCCCCCCC)C1C(=O)O (stereo not drawn)
4. CCN(CC)CCCCNc1ccc(Cl)cc1
5. CCOC(=O)OC(=S)N(C1CCCCC1)C1CCCCC1
6. CC(=O)Oc1ccc(Cl)cc1Cc1cc(Cl)ccc1OC(C)=O
7. BrCC1(CBr)COC1

Response:
1: 94; 2: 99; 3: 89; 4: -2; 5: 90; 6: 93; 7: 64

Report growth inhibition for every entry below.
1. Cc1c(N)nc(C(CC(N)=O)NCC(N)C(N)=O)nc1C(=O)NC(C(=O)NC(C)C(O)C(C)C(=O)NC(C(=O)NCCc1nc(-c2nc(C(=O)NCCCNCCCc3ccccn3)cs2)cs1)C(C)O)C(OC1OC(CO)C(O)C(O)C1OC1OC(CO)C(O)C(OC(N)=O)C1O)c1cnc[nH]1 (stereo not drawn)
2. Cc1[nH]c2ccccc2c1SCc1ccccc1
3. O=C(O)/C=C\c1cc2ccccc2c2ccccc12

Response:
1. 99
2. 100
3. 99

List the reported growth inhibition of each compound below.
1. O=C(/C=C/c1ccc(Cl)c(Cl)c1)CCN1CCN(CCC(=O)/C=C/c2ccc(Cl)c(Cl)c2)CC1
2. O=C(CSc1nnc(Cc2ccccc2)o1)Nc1ccc(Cl)cc1[N+](=O)[O-]
3. O=S(=O)(Nc1nccs1)c1ccc(N=Cc2cn(Cc3ccccc3)c3ccccc23)cc1
4. O=C(O)CCCc1ccc2ccccc2c1
5. Cc1c2cnccc2c(C)c2c1c1ccccc1n2CCCN
6. O=C(Nc1ccc(C(F)(F)F)cc1[N+](=O)[O-])C(=O)C(C(=O)c1ccc2ccccc2c1)C1OC(=O)c2ccccc21 (stereo not drawn)
7. C(=C\c1cnnc2ccccc12)/c1ccco1
8. NC(N)=Nc1ccc(Cc2ccc(N=C(N)N)cc2)cc1

Response:
1. 99
2. 57
3. 7
4. -1
5. 33
6. 10
7. 33
8. -4

For the 2 compounds below, give their growth inhibition values.
1. N#CCCN(C(=S)Nc1cccc(C(F)(F)F)c1)C1CCCCC1
2. NC1C(=O)C2CCCCC2C(=O)C1C(=O)c1ccccc1 (stereo not drawn)

Response:
1. 87
2. 17

* * *

test: NCI Yeast Anticancer Drug Screen. Data for the mlh1 rad18 strain (AID 175)
testParameters: S. cerevisiae mlh1 rad18 strain growth inhibition; at 50.0 µM (retest, dose inferred, filed as 5.0); hits give high values
This is part of a sample that, as a whole, favours compounds with a hit. Of some 79,000 tested, about 15% had one in any assay.
recordedEndpoint: growth inhibition (%)
Answers are plain numbers, in %.

- N#Cc1ccccc1NC1OCC(O)C(O)C1O (centres undefined): -105
- O=S(=O)(O)c1ccc2c(c1)C1C(C3C2C2(Cl)C(Cl)=C(Cl)C3(Cl)C2(Cl)Cl)C2(Cl)C(Cl)=C(Cl)C1(Cl)C2(Cl)Cl (centres undefined): 93
- CCC[C@H]1[C@H](CCC)[C@@]2(OC(=O)C3=C2CCC=C3)[C@]12OC(=O)C1=C2CCC=C1: 98
- Nc1ccc(C(=O)N/C(=C\C=C\c2ccco2)c2nc3c4c(ccc3[nH]2)C(=O)c2ccccc2C4=O)cc1: 12
- C/C(=N\OC(=O)c1ccccc1)[N+](=O)[O-]: 98

Hello, I would appreciate it if you could give growth inhibition for each entry below.
1. COc1ccc2c(c1)[n+]([O-])c(C(N)=O)c(N)[n+]2[O-]
2. CCN(CC)CCNc1ccc(C)c2sc3ccc(OC)cc3c(=O)c12
3. CCCCC(CCc1ccccc1[N+](=O)[O-])(C(C)=O)C(=O)OCC (centres undefined)
4. Cc1ccc(S(=O)(=O)C(C#N)(CCC(=O)/C=C/c2ccccc2)CCC(=O)/C=C/c2ccccc2)cc1

Response:
99
98
3
-28

// data source = PubChem BioAssay (NCI)
